Experiment: therapeutic index LD50:ED50 related to antiarrhythmic activity on auricle
Type: in vivo, LD50: male Wistar rats; ED50: cats (b90) / rats (b59)
Details: rat, in vivo, iv, LD50 i.v. rats; ED50 i.v.; read-out: Auricle: Therapeutic index LD50:ED50 /i.v.//i.v./
Method: The animals were anaesthetized with chloralose-urethane [50/30 mg/kg, i.v.]. The minimal strength of the current necessary to evoke the ventricular and auricular fibrillo-flutter, respectively, was followed by the method of Szekeres and al. [Szekeres, Mehes and Papp: Brit. […] The i.v. and p.os LD50 values were determined on rats.
Measured selectivity ratio, listed per entry.
Enter a number only.

Check out these entries, answers already filled in.
C=C[C@H]1C[N@@]2CC[C@H]1C[C@@H]2[C@@H](O)c1ccnc2ccc(OC)cc12 [Quinidine, reference compound] | 13.4
Cc1cccc(C)c1OCC(O)CN1CCCCCCC1 (stereo not shown) | 23.9
Cc1cccc(C)c1NCC(O)CN1CCCCCC1 (stereo not shown) | 20.7

Next compound, selectivity ratio to be filled in.
Any idea what its selectivity ratio is? The compound is Cc1cccc(C)c1OCC(O)CN1CCCCCC1 (stereo not shown)
13.3

###

Quick reference for selectivity ratio among some molecules
Test: therapeutic index LD50:ED50 related to antiarrhythmic activity on ventricle
Format: in vivo, LD50: male Wistar rats; ED50: cats (b90) / rats (b59)
Conditions: rat, in vivo, iv; LD50 p.os rats; ED50 i.v.

Study these solved cases before continuing.
Cc1cccc(C)c1OCC(O)CN1CCCCCCC1 (stereo not shown) | 229
Cc1cccc(C)c1OCC(O)CN1CCCCCC1 (stereo not shown) | 110
C=C[C@H]1C[N@@]2CC[C@H]1C[C@@H]2[C@@H](O)c1ccnc2ccc(OC)cc12 [Quinidine, reference compound] | 145

We now examine a further molecule.
Can you look up the measured selectivity ratio of Cc1cccc(C)c1NCC(O)CN1CCCCCC1 (stereo not shown) for me?
209

###

System: Auricle
Assay: antiarrhythmic activity, electrical fibrillation threshold of auricle, anaesthetized cats
Format: in vivo
Conditions: relative to quinidine = 1.00, from ED50 mg/kg, i.v., fibrillation threshold method
measured property: Auricle: Relative activity
Answer with the value's number alone.

Illustrative cases are given below, each with its answer.
C=C[C@H]1C[N@@]2CC[C@H]1C[C@@H]2[C@@H](O)c1ccnc2ccc(OC)cc12 [Quinidine, reference compound] | 1.00
Cc1cccc(C)c1NCC(O)CN1CCCCCC1 (stereo not shown) | 8.54
Cc1cccc(C)c1OCC(O)CN1CCCCCC1 (stereo not shown) | 7.14

In the following, a different compound is considered.
Value lookup for Auricle: Relative activity; key = Cc1cccc(C)c1OCC(O)CN1CCCCCCC1 (stereo not shown)
12.50

###

System: Ventricle
Test: therapeutic index LD50:ED50 related to antiarrhythmic activity on ventricle
Assay type: in vivo, LD50: male Wistar rats; ED50: cats (b90) / rats (b59)
Conditions: LD50 i.v. rats; ED50 i.v.
Protocol: The animals were anaesthetized with chloralose-urethane [50/30 mg/kg, i.v.]. The minimal strength of the current necessary to evoke the ventricular and auricular fibrillo-flutter, respectively, was followed by the method of Szekeres and al. [Szekeres, Mehes and Papp: Brit. […] The i.v. and p.os LD50 values were determined on rats.
A collection of molecules and their measured Ventricle: Therapeutic index LD50:ED50 /i.v.//i.v./
// print number alone

Cc1cccc(C)c1NCC(O)CN1CCCCCC1 (stereo not shown) | 9.9
Cc1cccc(C)c1OCC(O)CN1CCCCCCC1 (stereo not shown) | 2.8
C=C[C@H]1C[N@@]2CC[C@H]1C[C@@H]2[C@@H](O)c1ccnc2ccc(OC)cc12 [Quinidine, reference compound] | 6.9

Which Ventricle: Therapeutic index LD50:ED50 /i.v.//i.v./ value is on record for Cc1cccc(C)c1OCC(O)CN1CCCCCC1 (stereo not shown) ?
7.7

###

Test: therapeutic index LD50:ED50 related to antiarrhythmic activity on auricle
Format: in vivo, LD50: male Wistar rats; ED50: cats (b90) / rats (b59)
Settings: rat, in vivo, iv; LD50 p.os rats; ED50 i.v.; read-out: Auricle: Therapeutic index LD50:ED50 /p.os//i.v./
measured property: selectivity ratio
Form rule: numeric answer, no unit written next to it.

For orientation, consider the following solved cases.
Cc1cccc(C)c1OCC(O)CN1CCCCCC1 (stereo not shown) [Example 5] | 189
Cc1cccc(C)c1NCC(O)CN1CCCCCC1 (stereo not shown) [Example 7] | 439
C=C[C@H]1C[N@@]2CC[C@H]1C[C@@H]2[C@@H](O)c1ccnc2ccc(OC)cc12 [Quinidine, reference compound] | 280

We now examine a further compound.
What does the record list as selectivity ratio for Cc1cccc(C)c1OCC(O)CN1CCCCCCC1 (stereo not shown) [Example 6] ?
1960
